These data points were gathered from ChEMBL document CHEMBL2331191.

System: MCF7
assay overview: Cytotoxicity against human MCF7 cells assessed as growth inhibition after 72 hrs by MTT assay
Format: functional, cell-based
experimental conditions: MCF7, 72 h
pIC50: −log10 of the molar value.
List of pIC50 values.
property label: pIC50

>>> quantitative_readout("CC(C)(C)OC(=O)N1CCN(C(=S)SCc2cn(CCOc3ccc4ccc(=O)oc4c3)nn2)CC1")
4.10
>>> quantitative_readout("O=C(OCc1ccccc1)N1CCN(C(=S)SCc2cn(Cc3ccccc3F)nn2)CC1")
5.10
>>> quantitative_readout("CC(C)(C)OC(=O)N1CCN(C(=S)SCc2cn(Cc3cc(=O)oc4cc(O)ccc34)nn2)CC1")
4.98
>>> quantitative_readout("S=C(SCc1cn(Cc2ccccc2Cl)nn1)N1CCNCC1")
4.41
>>> quantitative_readout("Cc1ccc(Cn2cc(CSC(=S)N3CCN(C(=O)OC(C)(C)C)CC3)nn2)cc1")
4.71
>>> quantitative_readout("COc1cc(Cn2cc(CSC(=S)N3CCN(C(=O)OC(C)(C)C)CC3)nn2)cc(OC)c1OC")
4.64
>>> quantitative_readout("CC(C)(C)OC(=O)N1CCN(C(=S)SCc2cn(-c3ccccc3F)nn2)CC1")
4.05
>>> quantitative_readout("CC(C)(C)OC(=O)N1CCN(C(=S)SCc2cn(Cc3ccc(Cl)c(Cl)c3)nn2)CC1")
4.72
>>> quantitative_readout("Cc1ccc(-n2cc(CSC(=S)N3CCN(C(=O)OC(C)(C)C)CC3)nn2)cc1")
4.13
